Target: α-glucosidase (Saccharomyces cerevisiae, UniProt P53341)
Sequence (P53341 whole entry): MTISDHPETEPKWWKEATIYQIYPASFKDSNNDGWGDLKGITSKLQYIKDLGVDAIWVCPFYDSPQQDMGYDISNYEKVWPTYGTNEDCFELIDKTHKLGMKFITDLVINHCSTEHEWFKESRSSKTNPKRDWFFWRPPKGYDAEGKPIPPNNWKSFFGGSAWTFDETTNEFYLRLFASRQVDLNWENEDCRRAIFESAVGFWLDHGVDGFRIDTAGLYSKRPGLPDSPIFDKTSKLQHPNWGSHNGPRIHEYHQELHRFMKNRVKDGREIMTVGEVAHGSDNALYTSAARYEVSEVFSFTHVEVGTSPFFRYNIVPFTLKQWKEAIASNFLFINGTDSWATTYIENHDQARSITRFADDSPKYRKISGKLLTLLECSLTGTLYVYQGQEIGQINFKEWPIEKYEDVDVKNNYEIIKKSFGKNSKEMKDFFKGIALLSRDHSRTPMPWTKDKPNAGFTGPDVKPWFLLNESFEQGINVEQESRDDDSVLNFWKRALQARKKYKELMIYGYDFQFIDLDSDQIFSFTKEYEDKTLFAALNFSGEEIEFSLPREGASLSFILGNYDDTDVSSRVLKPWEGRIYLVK
Experiment: biochemical
Format: biochemical
Settings: read-out: α-glucosidase inhibition IC50 ± SEM
IC50 for assorted molecules
Report the figure in µM without appending any unit label.

Consider the following illustrative entries.
COc1ccc(C(=O)n2nc(C)c(/N=N/c3ccc(S(N)(=O)=O)cc3)c2C)cc1; 3.29
Cc1ccc(C(=O)n2nc(C)c(/N=N/c3ccc(S(N)(=O)=O)cc3)c2C)cc1; 9.22
Cc1nn(C(=O)c2cccc([N+](=O)[O-])c2)c(C)c1/N=N/c1ccc(S(N)(=O)=O)cc1; 2.77

[Q] Which measured IC50 belongs to Cc1nn(C(=O)c2ccc([N+](=O)[O-])cc2)c(C)c1/N=N/c1ccc(S(N)(=O)=O)cc1 , tested on α-glucosidase (Saccharomyces cerevisiae, UniProt P53341)?
[A] 4.11
